TARGET SYSTEM: Troponin I, cardiac muscle (Homo sapiens) + Troponin T, cardiac muscle (Homo sapiens) + Troponin C, slow skeletal and cardiac muscles (Homo sapiens) (UniProt P19429+P45379+P63316)
PROTOCOL SUMMARY: cardiac RTF calcium sensitivity activators, confirmation, biochemical, IANBD-TnC fluorescence, triplicate (AID 504383);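 note: 0% = DMSO at 0.472 mM calcium and 100% = DMSO at 2.9 mM calcium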
CONDITION SUMMARY: IANBD-labeled cardiac RTF, Ca2+ sensitivity fluorescence; at 7.2 µM; scaled from EC20 to saturating calcium; tested at EC20 calcium, 0.472 mM
Screen size: about 2,500 compounds; about 1,200 (48%) were called active.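 Rule for the calls: active = mean activation above the low control average plus 3 SD, as set in the primary screen (cut at about 12% in these data); inactive = the rest.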 The set was probably picked from earlier hits. This is one part of the list.
One label from this list, please: yes (active), no (inactive)

Look over these answered cases.
Which outcome was assigned to CC1CCN(c2oc(-c3ccccc3F)nc2C#N)CC1 in this test? no

Next up: Cc1ccc(SCC(=O)OCC(=O)NCc2cccs2)cc1 yes

Then Cc1ccccc1OCCC(=O)Nc1cc(S(=O)(=O)N2CCCCC2)ccc1N1CCN(C)CC1 ? yes

Entry to check: COc1ccc(OCC(=O)OCCNC(=O)c2cccnc2)cc1 no

Continue with S=C1NC2=C(CCC/C2=C\c2ccccc2)C(c2ccccc2)N1 (stereo not drawn) no

Query COc1ccccc1/C=[N+](\[O-])C1SC(=S)N(C)C1(C)C (stereo not drawn) next no

And then O=C(Cc1nc2ccccc2[nH]c1=O)c1ccccc1 , what is it? no

Follow-up entry: O=C1CC(c2cccc(Oc3ccccc3)c2)NC(=O)N1 (stereo not drawn) no

Same question for COc1ccc(C2C(C#N)=C(N)SC(N)=C2C#N)cc1OC please. no

CN(C)C=NC(=O)c1cc(C(=O)c2ccccc2Cl)c[nH]1 , same question. no

Further cases:
Please share the test call associated with CCN(CC)c1ccc2oc(=O)c(C)nc2c1 . yes

Next entry: Oc1ccc2ccc3cccc[n+]3c2c1 yes

For CC1C2(C)OC(=N)C(C#N)(C(C)O2)C1(C#N)C#N (stereo not drawn) then? yes

Here is the next compound: Fc1ccc(CNCc2ccc(Br)cc2)cc1 no

What about Cc1ccc(OCCCC(=O)NC2CCCCC2)cc1 ? no

Let us now turn to CC(C)CN(C(=O)CCCc1nc2ccccc2c(=O)[nH]1)c1c(N)n(Cc2ccccc2)c(=O)[nH]c1=O no

* * *

Known activation of a selection of compounds
TARGET SYSTEM: Troponin I, cardiac muscle (Homo sapiens) + Troponin T, cardiac muscle (Homo sapiens) + Troponin C, slow skeletal and cardiac muscles (Homo sapiens) (UniProt P19429+P45379+P63316)
PROTOCOL SUMMARY: cardiac RTF calcium sensitivity activators, confirmation, biochemical, IANBD-TnC fluorescence, triplicate (AID 504383);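 note: 0% = DMSO at 0.472 mM calcium and 100% = DMSO at 2.9 mM calcium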
CONDITION SUMMARY: IANBD-labeled cardiac RTF, Ca2+ sensitivity fluorescence; at 7.2 µM; active compounds read high; scaled from EC20 to saturating calcium; tested at EC20 calcium, 0.472 mM
In all, about 2,500 compounds went through this assay and about 1,200 (48%) were called active. The set was probably picked from earlier hits. The list shows a part of the results.
Only the number, expressed in %, is required.

Previously resolved entries follow.
Using the record for COc1ccc(C(=O)O)cc1S(=O)(=O)NCCc1ccccn1 , report its activation. 5.17

COCCN=c1scc(-c2cc(OC)c(OC)c(OC)c2)n1/N=C/c1c(C)[nH]c2ccccc12 , same question. 72.2

And Cc1ccc2nc(/C(C#N)=C\c3ccc(N4CCOCC4)o3)[nH]c2c1 ? 44.2

And then C[C@H]1CCC(=O)N([C@H](CSc2ccc(Br)cc2)Cc2ccccc2)CC1 , what is it? 6.56

Moving on to the next compound: COc1ccccc1NC(=O)/C=C/C(=O)O 9.02

--- query ---
Quick one: activation of CC(=O)Nc1ccc(S(=O)(=O)N2CCN3CCCC3C2)cc1 (stereo unspecified) ? 6.53

* * *

TARGET SYSTEM: Troponin I, cardiac muscle (Homo sapiens) + Troponin T, cardiac muscle (Homo sapiens) + Troponin C, slow skeletal and cardiac muscles (Homo sapiens) (UniProt P19429+P45379+P63316)
PROTOCOL SUMMARY: cardiac RTF calcium sensitivity activators, confirmation, biochemical, IANBD-TnC fluorescence, triplicate (AID 504383);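 note: 0% = DMSO at 0.472 mM calcium and 100% = DMSO at 2.9 mM calcium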
CONDITION SUMMARY: IANBD-labeled cardiac RTF, Ca2+ sensitivity fluorescence; at 7.2 µM; scaled from EC20 to saturating calcium; tested at EC20 calcium, 0.472 mM
The whole screen tested about 2,500 compounds, of which about 1,200 (48%) were called active.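 How the source made its calls: active means mean activation above the low control average plus 3 SD, as set in the primary screen (cut at about 12% in these data); inactive means the rest.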 So high a share suggests a set chosen from earlier hits. The list shows a part of the results.
// allowed return values: active, inactive

Examples with answers:
For Cc1nn(C)c(NC(=O)c2ccccc2Cl)c1Cl , which call appears in the assay record? active

Lookup CCOC(=O)C(=O)Nc1nnc(COc2ccccc2)s1 inactive

Continue with CCCCOC(=O)Nc1nnc(C(C)C)s1 active

Entry COc1ccccc1C(=O)Nc1nnn(C)n1 please inactive

Input O=C1/C(=C/c2cccc(F)c2)Oc2cc(O)ccc21 inactive

Again, but for C/C(Cn1cnc([N+](=O)[O-])n1)=N\NC(=O)c1cccc(F)c1 inactive

Next molecule up: O=C(C1=C[C@@H](c2ccc(Br)cc2)C[C@@H](OCc2ccc(CO)cc2)O1)N1CCN(Cc2ccc3c(c2)OCO3)CC1 inactive

Now look at this entry.
Record lookup: outcome of this test for O=C(Nc1ccccc1)C1=C[C@H](c2ccc3c(c2)OCO3)C[C@H](OCCCCO)O1 ? active

* * *

TARGET SYSTEM: Troponin I, cardiac muscle (Homo sapiens) + Troponin T, cardiac muscle (Homo sapiens) + Troponin C, slow skeletal and cardiac muscles (Homo sapiens) (UniProt P19429+P45379+P63316)
PROTOCOL SUMMARY: cardiac RTF calcium sensitivity activators, confirmation, biochemical, IANBD-TnC fluorescence, triplicate (AID 504383);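 note: 0% = DMSO at 0.472 mM calcium and 100% = DMSO at 2.9 mM calcium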
CONDITION SUMMARY: IANBD-labeled cardiac RTF, Ca2+ sensitivity fluorescence; at 7.2 µM; scaled from EC20 to saturating calcium; tested at EC20 calcium, 0.472 mM
Hit rate of the full screen: of about 2,500 compounds, about 1,200 (48%) were called active.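 Rule for the calls: active = mean activation above the low control average plus 3 SD, as set in the primary screen (cut at about 12% in these data); inactive = the rest.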 The set was probably picked from earlier hits. Some of the results follow.
Your answer must be one of the following: 1 = active, -1 = inactive

Fill in: this test's call for Cc1c(N2C(=O)/C(=C\c3ccc(N(C)C)cc3)N(C)C2=S)c(=O)n(-c2ccccc2)n1C is ___ -1

Then this compound: CN(C)CCOc1ccccc1C(C)(C)C -1

Next entry: COc1cc([C@@H]2[C@H]3CN(C)CC=C3C(C#N)=C(N)C2(C#N)C#N)cc2c1OCO2 -1

Entry COc1ccc(OC)c(C2C3CN(C(C)C)CC=C3C(C#N)=C(N)C2(C#N)C#N)c1 (configuration not stated) please 1

Also Nc1ccc2nc3c(=O)[nH]c(=S)[nH]c3nc2c1 , if possible. 1

Continuing:
Each compound tested received a call. Report the one for CC(C)N1CC=C2C(C#N)=C(N)C(C#N)(C#N)C(c3ccccc3)C2C1 (configuration not stated) . -1

Try this compound next: CCCN1CC=C2C(C#N)=C(N)C(C#N)(C#N)C(c3cc(OC)ccc3OC)C2C1 (configuration not stated) -1

Queued: COc1ccc(/C=c2\s/c(=C/C(=O)c3ccc(C)cc3)[nH]c2=O)c(OC)c1 -1

Entry to check: Cc1ccc(S(=O)(=O)/N=C2/NC(=O)/C(=C/c3cc([N+](=O)[O-])ccc3O)S2)cc1 -1

What about this compound? CCCS(=O)(=O)N1CCC(C(=O)NCCCN2CCC(Cc3ccccc3)CC2)CC1 -1

Another: COc1cc(/C=C(\C#N)C(=O)c2c[nH]c3ccccc23)cc(OC)c1O -1

What do we get for Fc1ccc(CN2CCCN(C(=S)Nc3ccc(F)cc3)CC2)cc1 ? 1

Next: CN(C)CCN(C)Cc1c2ccccc2c(CN(C)CCN(C)C)c2ccccc12 1

Okay, and CN(/N=C/c1ccc(N(C)C)cc1)C1=NS(=O)(=O)c2ccccc21 ? 1

Repeat for the following compound: CCOC(=O)/C(=C\c1ccc(N2CCC(c3ccccc3)=N2)cc1)C(C)=O -1

Next record, please: Nc1ccc2nc3c(=O)n(C4CCCCC4)c(=O)[nH]c3nc2c1 1

Next compound up: CN(C)c1ccc(/C=N/N(CCO)C2=NS(=O)(=O)c3ccccc32)cc1 1

* * *

TARGET SYSTEM: Troponin I, cardiac muscle (Homo sapiens) + Troponin T, cardiac muscle (Homo sapiens) + Troponin C, slow skeletal and cardiac muscles (Homo sapiens) (UniProt P19429+P45379+P63316)
PROTOCOL SUMMARY: cardiac RTF calcium sensitivity activators, confirmation, biochemical, IANBD-TnC fluorescence, triplicate (AID 504383);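 note: 0% = DMSO at 0.472 mM calcium and 100% = DMSO at 2.9 mM calcium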
CONDITION SUMMARY: IANBD-labeled cardiac RTF, Ca2+ sensitivity fluorescence; at 7.2 µM; scaled from EC20 to saturating calcium; tested at EC20 calcium, 0.472 mM
The campaign covered roughly 2,500 compounds. About 1,200 (48%) were called active.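 The calls were made as follows: active = mean activation above the low control average plus 3 SD, as set in the primary screen (cut at about 12% in these data); inactive = the rest.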 So high a share suggests a set chosen from earlier hits. This is one part of the list.
Your answer must be one of the following: label 1 (active), label 0 (inactive)

Dear colleague, could you share the recorded outcome for COC(=O)c1cc(-c2cccc(OC)c2)n[nH]1 when you have a moment? label 1

Lookup COCCCNc1c2c3c(cccc3[nH]c1=O)C(=O)c1ccccc1-2 label 1

And the next one, Fc1ccc(-c2[nH]ncc2CN(CC2CCC2)CC2CCCO2)c(F)c1 (stereo unspecified) ? label 1

Thanks! And CC(=O)OCCn1c2nc(=O)[nH]c(=O)c-2nc2cc(C)c(C)cc21 ? label 0

Others:
GET /call?item= O=C(O)c1cccc(-c2ccc(/C=N/Nc3ccc([N+](=O)[O-])cc3)o2)c1 returns the recorded outcome of this test. label 1

Another molecule to look at: O=C1N(c2ccc(Cl)cc2)C(c2ccccc2)N2CCCN12 (stereo unspecified) label 0

# iterate: CN(/N=C/c1ccc(-c2ccc([N+](=O)[O-])cc2)o1)c1ccccc1 label 1

Entry to check: CC(C)(C)c1ccc(C(=O)N/C(=C\c2cccs2)C(=O)NCc2ccco2)cc1 label 0

Another molecule to look at: Cc1cc2nc3c(=O)n(CCc4ccccc4)c(=O)[nH]c3nc2cc1N label 1

Param item: COC(=O)CCN(C(=O)c1ccc([N+](=O)[O-])cc1)c1ccccn1 label 1

Next: C/C(O)=c1/ccc2cccc3nc(C)nc1c23 label 1

Entry source: PubChem BioAssay AID504383
